- Test system: ICAM-1 (Intercellular cell adhesion molecule-1)
- measurement.notes: Cell-ELISA for measurement of LPS-induced ICAM-1 expression on endothelial cells
- Type: cell-based
- conditions.used: LPS (1 μg/ml) 16 hrs, human endothelial cells, read-out: ICAM-1 inhibition IC50
pIC50: −log10 of the molar value.
Entries and their measured pIC50 follow.

compound: COC(=O)C(CCCC(=O)OC1CCCCC1)Sc1ccccn1 (stereo not drawn) [AD-21]
pIC50: 3.93
//
compound: CCCCCOC(=O)CCSc1ccccn1 [RS—Z]
pIC50: 4.30
//
compound: CCCOC(=O)CCCC(Sc1ccccn1)C(=O)OC (stereo not drawn) [AD-20]
pIC50: 3.75
